tested on: Vesicular stomatitis virus; experiment: Antiviral activity against VSV; assay type: functional

{"COMPOUND": "Nc1nc2c(ncn2COCCO)c(=O)[nH]1", "MIC": "> 500 µM"}
{"COMPOUND": "NC(=O)c1ncn([C@@H]2O[C@H](CO)[C@@H](O)[C@H]2O)n1", "MIC": "300 µM"}
{"COMPOUND": "CC(=O)O[C@@H]1C=C(C2O[C@@H]3OC(O)C4=C[C@@H](OC(C)=O)[C@H]5C(C)(C)CCC[C@]5(C)[C@]43O2)[C@](O)(C=O)[C@@]2(C)CCCC(C)(C)[C@H]12 (some centres undefined)", "MIC": "> 1.03 µM"}
{"COMPOUND": "CC(=O)O[C@@H]1C=C(C=O)[C@](O)(C=O)[C@@]2(C)CCCC(C)(C)[C@H]12", "MIC": "> 2.06 µM"}

Data origin: ChEMBL document CHEMBL1141413
